- Test system: TG CD8 T-cells
- EXPERIMENT SUMMARY: IFN-γ intracellular cytokine cytometry (ICC) with autologous LCL and peptide
- Type: cell-based, human
- EXPERIMENTAL PARAMETERS: 6-hour; autologous LCL; 1 μM peptide
No end group written: not given here.
OUTCOME MEASURE: reactivity in IFN-γ ICC

ETDPVTFLY [UL53 AA 201-209, ETDPVTFLY]; reactive
UL48 477-490: HSV-1 UL48/VP16 amino acids 477-490 (QMFTDALGIDEYGG); epitope
LIDGIFLRY [UL1 AA 66-74, LIDGIFLRY]; reactive
SALPTNADLY (HSV-1) [UL48 90-99]; epitope
